System: SN12C renal
Assay: NCI-60 one-dose screen, 48 h (100 = growth as untreated, 0 = no growth, -100 = all killed)
Details: 10 µM unless noted
Procedure: Growth inhibition of the SN12C human tumor cell line is measured as a screen for anti-cancer activity. Cells are grown in 96 well plates and exposed to the test compound for 48 hours. Compounds are tested at a single concentration, which is 10^-5 M for most compounds. The reported endpoint is percent growth (GI% or GIPRCNT), where numbers from 0 - 100% represent growth inhibition, and numbers from -100% - 0 represent cell death. For example, a value of 40 represents 60% growth inhibition. […]
About 83,000 compounds went through this panel and 20% of them were active in at least one assay; those are over-represented in the sample as a whole.
Would you mind telling me the reported growth of each entry?
Expressed in %, but write only the number.

Problem: Form field: reported growth of "O=c1cc(-c2ccccc2)nc2sc(-c3c[nH]c4ccc(F)cc34)nn12"
Solution: 56.6

Problem: Form field: reported growth of CCOC(=O)/C(F)=C/C1CC1CCc1cccc(C(F)(F)F)c1 (centres undefined)
Solution: 104

Problem: Form field: reported growth of "CSc1nccc(-c2c(-c3ccc(F)c(OCc4ccc(F)cc4)c3)nc3sccn23)n1"
Solution: 74

Problem: Form field: reported growth of "CCOC(=O)Nc1cccc(-n2cnc3cc(-c4ccc(O)cc4)ccc32)c1"
Solution: 31.2

Problem: Form field: reported growth of "O=C1[C@H]2Cc3c([nH]c4ccccc34)[C@@H](c3ccc(Cl)cc3)N2C(=O)CN1C1CCN(Cc2c(Cl)cccc2Cl)CC1"
Solution: 81.3

Problem: Form field: reported growth of "C#C[C@]1(O)CC[C@H]2[C@@H]3CC=C4c5sc(-c6cccc(F)c6)nc5CC[C@]4(C)[C@H]3CC[C@@]21C"
Solution: 89.6

Problem: Form field: reported growth of "CS(=O)(=O)c1nccc(-c2c(-c3ccc(F)c(OCCc4ccccc4)c3)nc3sccn23)n1"
Solution: 83.7

Problem: Form field: reported growth of "CN1CCN(c2nc(-c3csc(-c4ccncc4)n3)cc3ccccc23)CC1"
Solution: 70.4

Problem: Form field: reported growth of "CNC(=O)c1cc(Oc2ccc3nc(NC(=O)c4ccc(CN5CCN(C)CC5)c(C(F)(F)F)c4)sc3c2)ccn1"
Solution: 76.4

====

System: ACHN renal
Assay: NCI-60 one-dose screen, 48 h (100 = growth as untreated, 0 = no growth, -100 = all killed)
Details: 10 µM unless noted
Compounds without any hit were thinned out: in the full panel of roughly 83,000, 20% have a hit.
Please assign N whenever growth is at or above 90%, and Y whenever it is below.

Problem: Given "Cc1cc(=O)n2nc(-c3c[nH]c4ccccc34)sc2n1" , is recorded growth strictly lower than 90%?
Solution: N

Problem: Given "O=C(CSc1ccc(-c2nc3ccccc3[nH]2)cn1)N1CCN(c2ccccc2F)CC1" , is recorded growth strictly lower than 90%?
Solution: N

Problem: Given "CCOc1ccc2nc(NC(=O)Nc3ccccc3C)sc2c1" , is recorded growth strictly lower than 90%?
Solution: Y

Problem: Given "O=c1[nH]c(CNc2ccc(NCc3c(-c4ccccc4)no[n+]3[O-])cc2)nc2c1cnn2-c1ccccc1" , is recorded growth strictly lower than 90%?
Solution: Y

Problem: Given "C=CCn1c(SCC(=O)Nc2ccc(OC)cc2)nnc1-c1ccc(Cl)cc1" , is recorded growth strictly lower than 90%?
Solution: N

Problem: Given COc1cc(C2CC(c3ccc(Nc4nc(NCCO)nc(Nc5ccc(Cl)cc5)n4)cc3)=Nc3c(N)nc(N)nc3N2)cc(OC)c1OC (centres undefined) , is recorded growth strictly lower than 90%?
Solution: Y

Problem: Given "Cn1c2ccc(Br)cc2c2c3c(c4c5cc(F)ccc5oc4c21)C(=O)N(O)C3=O" , is recorded growth strictly lower than 90%?
Solution: Y

Problem: Given "C=C(C)C(=O)O[C@H]1C[C@@]2(C)OC(=CC2=O)/C(CO)=C\[C@H]2OC(=O)C(=C)[C@H]12" , is recorded growth strictly lower than 90%?
Solution: Y

Problem: Given "CC(=O)Nc1cccc(-n2cnc3cc(-c4ccc(O)cc4)ccc32)c1" , is recorded growth strictly lower than 90%?
Solution: Y

====

Would you mind telling me the reported growth of each entry?
Test system: NCI-H522 lung
Assay: NCI-60 one-dose screen, 48 h (100 = growth as untreated, 0 = no growth, -100 = all killed)
Settings: 10 µM unless noted
About 83,000 compounds went through this panel and 20% of them were active in at least one assay; those are over-represented in the sample as a whole.
Expressed in %, but write only the number.

Problem: Form field: reported growth of "Cc1ccc(S(=O)(=O)N/N=C/c2cn(-c3ccc(F)cc3)nc2-c2ccc(S(C)(=O)=O)cc2)cc1"
Solution: 95.3

Problem: Form field: reported growth of "Cc1ccc(/C=C/CC(=O)Nc2ccc(C(=O)Nc3ccc(F)cc3N)nc2)cn1"
Solution: 2.35

Problem: Form field: reported growth of "Oc1ccc(CSc2nnc(-c3ccccc3)o2)c2cccnc12"
Solution: 22.6

Problem: Form field: reported growth of "CCCCCCNC(=O)Oc1ccc(/C(=C(/C)c2ccc(Cl)cc2)c2ccc(OCCN3CCCC3)cc2)cc1"
Solution: 65.3

Problem: Form field: reported growth of "O=C(CSc1ccc(-c2nc3ccccc3[nH]2)cn1)N1CCN(c2ccccc2F)CC1"
Solution: 52.4

Problem: Form field: reported growth of "NC(=O)c1c(NC(=O)c2cccc(C(F)(F)F)c2F)sc2c1CCC(=O)C2"
Solution: -11.4

Problem: Form field: reported growth of "O=C(NNc1nc2cc(F)c(F)cc2n2cccc12)c1ccncn1"
Solution: 2.02

Problem: Form field: reported growth of "Cc1nn(-c2ccc(Cl)cc2)c(C)c1N=Nc1ccc2oc(=O)ccc2c1"
Solution: 81.7

Problem: Form field: reported growth of "COc1ccc(-c2nc(SCC(C)C)nc(N/N=C\c3cccc([N+](=O)[O-])c3)c2C#N)cc1"
Solution: 59.4

Problem: Form field: reported growth of "COc1ccc(C(=O)c2c(N)c(C#N)cn2-c2cccc(OC)c2)cc1"
Solution: 3.14

Problem: Form field: reported growth of "CCOC(=O)Nc1ccc(-c2nc(-c3cccc(O)c3)c(-c3ccnc(Br)c3)[nH]2)cc1"
Solution: 25.1

Problem: Form field: reported growth of CCCC(=O)NC(c1cccnc1)c1cc(Cl)c2cccnc2c1O (stereo not drawn)
Solution: 16.8

Problem: Form field: reported growth of "COc1ccc(NC2=C(Cl)C(=O)C(C)=C(C)C2=O)cc1"
Solution: 85.6

Problem: Form field: reported growth of Cc1cccc(NC(c2cc3cccc4ccc5cccc2c5c43)c2nnnn2C(C)(C)C)c1C (stereo not drawn)
Solution: 77.3

Problem: Form field: reported growth of "NS(=O)(=O)c1ccc(Nc2nc(N/N=C/c3ccc([N+](=O)[O-])cc3)nc(Nc3ccccc3)n2)cc1"
Solution: 48.3

Problem: Form field: reported growth of O=S(=O)(NC1CC2CCC1C2)c1ccc2c(c1)C(=NO)c1cc(S(=O)(=O)NC3CC4CCC3C4)ccc1-2 (stereo not drawn)
Solution: 32.4

Problem: Form field: reported growth of "COc1cc(OC)c(S(N)(=O)=O)cc1C(=O)/C=C/c1ccccc1"
Solution: 25.8

Problem: Form field: reported growth of "Cc1occc1-c1nc2s/c(=C\c3cn(-c4ccccc4)nc3-c3ccccc3)c(=O)n2n1"
Solution: 92.3

Problem: Form field: reported growth of CC1CCc2c(sc3nc(SCC(=O)N/N=C/c4cccc(O)c4O)n(-c4ccccc4)c(=O)c23)C1 (stereo not drawn)
Solution: 83.1

Problem: Form field: reported growth of "O=C1CSC(=O)N1Cc1cc2ccccc2nc1Cl"
Solution: 94.3

Problem: Form field: reported growth of O=C(COc1ccc(C2SCC(=O)N2c2ccc(F)cc2)cc1)c1ccccc1 (stereo not drawn)
Solution: 84.1

Problem: Form field: reported growth of "c1cncc(-c2cn3nc(-c4c[nH]c5ccccc45)sc3n2)c1"
Solution: 2.85

Problem: Form field: reported growth of "COc1ccc2c(C3=C(c4cn(C)c5ccccc45)C(=O)NC3=O)coc2c1"
Solution: -29.5

Problem: Form field: reported growth of "CCOC(=O)c1c(NC(=O)c2ccc(C(C)(C)C)cc2)sc2cc(OCCN3CCCCC3)ccc12"
Solution: 96.8

Problem: Form field: reported growth of "O=C(CN1C(=O)S/C(=C\c2ccccc2)C1=O)Nc1ccc(C(=O)/C=C/c2cc3ccccc3nc2Cl)cc1"
Solution: 73.3

Problem: Form field: reported growth of "C=CCn1c(SCC(=O)Nc2cccc(C(=O)/C=C/c3ccc(Br)cc3)c2)nc2ccccc2c1=O"
Solution: 75.3

Problem: Form field: reported growth of "O=C(NCCCNc1cc(-c2cn(-c3ccccc3)nc2-c2cccc(O)c2)ccn1)Nc1cccc(C(F)(F)F)c1"
Solution: 46.9

Problem: Form field: reported growth of "O=C(CCCCCCN1CC(=O)N2[C@@H](c3cc(F)cc(F)c3)c3[nH]c4ccccc4c3C[C@H]2C1=O)NO"
Solution: 41.2

Problem: Form field: reported growth of "COc1cc2cc(Oc3ccc(NC(=O)c4cccc(C(F)(F)F)c4)cc3)c(C)nc2cc1OCCN(C)C"
Solution: 99.9

Problem: Form field: reported growth of "COc1cc(/C=N/n2cnc3oc(-c4ccccc4)cc3c2=N)cc(CN2CCCCC2)c1O"
Solution: -42.2

Problem: Form field: reported growth of "O=C(C[n+]1ccnc2ccccc21)c1ccc(O)c(O)c1"
Solution: -5

Problem: Form field: reported growth of "Nc1n[nH]c2cccc(C#Cc3cccc(NC(=O)c4cccc(OC(F)(F)F)c4)c3)c12"
Solution: 49.2

Problem: Form field: reported growth of CCN1C(=O)N(CC)C2SC(N/N=C/c3cccs3)=NC21 (stereo not drawn)
Solution: -47.9

Problem: Form field: reported growth of "COc1ccc(-c2no[n+]([O-])c2Nc2ccccc2Br)cc1"
Solution: 81.4

Problem: Form field: reported growth of "O=S(=O)(Nc1ccc(I)c(Cl)c1)c1ccc(-c2cnc(C3CC3)o2)cc1"
Solution: 24.7

Problem: Form field: reported growth of "CCC(=O)Nc1ccc(-c2nc(-c3cccc(O)c3)c(-c3ccnc(Br)c3)[nH]2)cc1"
Solution: 57.8

Problem: Form field: reported growth of "CN1CCN(Cc2ccc(NC(=O)c3cncc(C#Cc4cnc5ccc(O[C@H]6CCOC6)nn45)c3)cc2C(F)(F)F)CC1"
Solution: -72.1

Problem: Form field: reported growth of "COc1cc(O)c2c(c1)[C@H]1O[C@@H]1C[C@H](O)[C@H](O)C(=O)/C=C\C[C@H](C)OC2=O"
Solution: 4.82

The reported measurements were obtained from PubChem BioAssay (NCI).
